The reported numbers originate from ChEMBL document CHEMBL4480391.

This listing pairs molecules with measured selectivity ratio.
Assay Method Text: Selectivity index, ratio of IC50 for human HSF cells to IC50 for human HCT15 cells
Assay type: toxicity
Condition Set: HSF cells versus HCT15 cells, read-out: Ratio IC50

Take a look at these entries with their results.
Molecule	selectivity ratio
O=c1[nH]cc(F)c(=O)[nH]1 [FLUOROURACIL]	> 6.64
CCCCCCC(SCCC(C)C)c1cc(OC)c2c(c1OC)/C(=N/O)C=C/C2=N\O (stereo not drawn)	> 48.1
CCC(SCCC(C)C)c1cc(OC)c2c(c1OC)/C(=N/O)C=C/C2=N\O (stereo not drawn)	> 22.4

# molecule CCCCCCCCCCCCC(SC(=O)c1cc(OC)c(OC)c(OC)c1)c1cc(OC)c2c(c1OC)/C(=N/O)C=C/C2=N\O (stereo not drawn) ; its selectivity ratio = > 7.85

# molecule CCCCCCCC(SC(=O)c1cc(OC)c(OC)c(OC)c1)c1cc(OC)c2c(c1OC)/C(=N/O)C=C/C2=N\O (stereo not drawn) ; its selectivity ratio = > 51

# molecule CCCCCCC(SC(=O)c1cc(OC)c(OC)c(OC)c1)c1cc(OC)c2c(c1OC)/C(=N/O)C=C/C2=N\O (stereo not drawn) ; its selectivity ratio = > 22.6

# molecule CCCCCCCCCCC(SC(=O)c1cc(OC)c(OC)c(OC)c1)c1cc(OC)c2c(c1OC)/C(=N/O)C=C/C2=N\O (stereo not drawn) ; its selectivity ratio = > 36

# molecule CCCCC(SCCC(C)C)c1cc(OC)c2c(c1OC)/C(=N/O)C=C/C2=N\O (stereo not drawn) ; its selectivity ratio = > 17.1

# molecule CCCCCCCCC(SC(=O)c1cccs1)c1cc(OC)c2c(c1OC)/C(=N/O)C=C/C2=N\O (stereo not drawn) ; its selectivity ratio = > 41

# molecule CCCCCCCCCCSC(CCCCCCCCCC)c1cc(OC)c2c(c1OC)/C(=N/O)C=C/C2=N\O (stereo not drawn) ; its selectivity ratio = > 1.42

# molecule CCCCCCCC(SCCC(C)C)c1cc(OC)c2c(c1OC)/C(=N/O)C=C/C2=N\O (stereo not drawn) ; its selectivity ratio = > 61

# molecule CCCCC(SC(=O)c1cc(OC)c(OC)c(OC)c1)c1cc(OC)c2c(c1OC)/C(=N/O)C=C/C2=N\O (stereo not drawn) ; its selectivity ratio = > 6.47

# molecule CCCCCCC(c1cc(OC)c2c(c1OC)/C(=N/O)C=C/C2=N\O)S(=O)(=O)CCC(C)C (stereo not drawn) ; its selectivity ratio = > 6.82

# molecule CCCCCCCCC(SCC)c1cc(OC)c2c(c1OC)/C(=N/O)C=C/C2=N\O (stereo not drawn) ; its selectivity ratio = > 21.6

# molecule CCCCCCCCC(SC(=O)c1cc(OC)c(OC)c(OC)c1)c1cc(OC)c2c(c1OC)/C(=N/O)C=C/C2=N\O (stereo not drawn) ; its selectivity ratio = > 100

# molecule CCCCCCCCC(SC(=O)c1ccco1)c1cc(OC)c2c(c1OC)/C(=N/O)C=C/C2=N\O (stereo not drawn) ; its selectivity ratio = > 20.7

# molecule CCCCCCCCC(SC(=O)c1ccc(C)cc1)c1cc(OC)c2c(c1OC)/C(=N/O)C=C/C2=N\O (stereo not drawn) ; its selectivity ratio = > 94.3

# molecule CCC(SC(=O)c1cc(OC)c(OC)c(OC)c1)c1cc(OC)c2c(c1OC)/C(=N/O)C=C/C2=N\O (stereo not drawn) ; its selectivity ratio = > 18.2

* * *

This listing pairs compounds with measured IC50.
Assay Method Text: Cytotoxicity against human […] cells after 72 hrs by MTT assay
Assay type: functional, cell-based
Give your result in nM as a bare value.

Take a look at these entries with their results.
Compound	Readout Number
CCCCCCCCC(SC(=O)/C=C/c1ccccc1)c1cc(OC)c2c(c1OC)/C(=N/O)C=C/C2=N\O (configuration not stated)	420
CCCCCCCCCC(SC(=O)c1cc(OC)c(OC)c(OC)c1)c1cc(OC)c2c(c1OC)/C(=N/O)C=C/C2=N\O (configuration not stated)	1340
CC(=O)O[C@H]1C(=O)[C@@]2(C)[C@H]([C@H](OC(=O)c3ccccc3)[C@]3(O)C[C@H](OC(=O)[C@H](O)[C@@H](NC(=O)c4ccccc4)c4ccccc4)C(C)=C1C3(C)C)[C@]1(OC(C)=O)CO[C@@H]1C[C@@H]2O	650
CCCCCCCCC(SC(=O)c1ccc(OC)c(OC)c1)c1cc(OC)c2c(c1OC)/C(=N/O)C=C/C2=N\O (configuration not stated)	740
CCCCCCCCC(SC(=O)c1ccc(C)cc1)c1cc(OC)c2c(c1OC)/C(=N/O)C=C/C2=N\O (configuration not stated)	930

# compound CCCCCCCCC(SCCC(C)C)c1cc(OC)c2c(c1OC)/C(=N/O)C=C/C2=N\O (configuration not stated) ; its IC50 = 2310

# compound CCCCCCCCC(SC(=O)c1cc(OC)c(OC)c(OC)c1)c1cc(OC)c2c(c1OC)/C(=N/O)C=C/C2=N\O (configuration not stated) ; its IC50 = 560

* * *

Test system: MGC-803
Assay Method Text: Cytotoxicity against human MGC803 cells after 72 hrs by MTT assay
Type: functional, cell-based
Condition Set: MGC-803, 72 h
Readout Kind: log10 IC50 (log10 of the value in µM)
Please interpret these as log10 of IC50 where IC50 is in µM.

Take a look at these entries with their results.
Molecule	Subject Of Test	Readout Number
CCCCCCC(SC(=O)c1cc(OC)c(OC)c(OC)c1)c1cc(OC)c2c(c1OC)/C(=N/O)C=C/C2=N\O (stereo unspecified)	MGC-803	0.69
CCC(SCCC(C)C)c1cc(OC)c2c(c1OC)/C(=N/O)C=C/C2=N\O (stereo unspecified)	MGC-803	1.02
CCCCCCCCC(SC(=O)c1ccc(C)cc1)c1cc(OC)c2c(c1OC)/C(=N/O)C=C/C2=N\O (stereo unspecified)	MGC-803	-0.03
CCCCCCCCCCC(SCCC(C)C)c1cc(OC)c2c(c1OC)/C(=N/O)C=C/C2=N\O (stereo unspecified)	MGC-803	0.95
CCCCCCCCCCC(SCCCCCC)c1cc(OC)c2c(c1OC)/C(=N/O)C=C/C2=N\O (stereo unspecified)	MGC-803	1.27
CCCCCCC(SCCC(C)C)c1cc(OC)c2c(c1OC)/C(=N/O)C=C/C2=N\O (stereo unspecified)	MGC-803	0.28

// below: log10 IC50 requested for another molecule
# molecule CCCCCCCCC(SCC)c1cc(OC)c2c(c1OC)/C(=N/O)C=C/C2=N\O (stereo unspecified) ; its log10 IC50 = 0.64

* * *

This listing pairs compounds with measured selectivity ratio.
Assay Method Text: Selectivity index, ratio of IC50 for human HSF cells to IC50 for human HCT15 cells
Format: toxicity
Condition Set: HSF cells versus HCT15 cells, read-out: Ratio IC50

Take a look at these entries with their results.
Compound	selectivity ratio
CCCCCCCCCC(SC(=O)c1cc(OC)c(OC)c(OC)c1)c1cc(OC)c2c(c1OC)/C(=N/O)C=C/C2=N\O (configuration not stated)	> 61
CCCCCCCCCCCCC(SCCC(C)C)c1cc(OC)c2c(c1OC)/C(=N/O)C=C/C2=N\O (configuration not stated)	> 3.86

# compound CC(C)=CC[C@@H](O)C1=CC(=O)c2c(O)ccc(O)c2C1=O ; its selectivity ratio = 1.45

# compound CCCCCCCCC(SC(=O)c1ccc(OC)c(OC)c1)c1cc(OC)c2c(c1OC)/C(=N/O)C=C/C2=N\O (configuration not stated) ; its selectivity ratio = > 109

# compound CCCCCCCCCCC(SCCCCC)c1cc(OC)c2c(c1OC)/C(=N/O)C=C/C2=N\O (configuration not stated) ; its selectivity ratio = > 7.89

# compound CCCCCCCCC(SC(=O)c1ccc(C(F)(F)F)cc1)c1cc(OC)c2c(c1OC)/C(=N/O)C=C/C2=N\O (configuration not stated) ; its selectivity ratio = > 13.1

# compound CCCCCCCCCCCCCCC(c1cc(OC)c2c(c1OC)/C(=N/O)C=C/C2=N\O)S(=O)(=O)CCC(C)C (configuration not stated) ; its selectivity ratio = > 7.44

# compound CCCCCCCCCC(SCCC(C)C)c1cc(OC)c2c(c1OC)/C(=N/O)C=C/C2=N\O (configuration not stated) ; its selectivity ratio = > 54.3

# compound CCCCCCCCCCCCCCC(SCCC(C)C)c1cc(OC)c2c(c1OC)/C(=N/O)C=C/C2=N\O (configuration not stated) ; its selectivity ratio = > 2.22

# compound CCCCCCCCCCCCCCC(SC(=O)c1cc(OC)c(OC)c(OC)c1)c1cc(OC)c2c(c1OC)/C(=N/O)C=C/C2=N\O (configuration not stated) ; its selectivity ratio = > 6.27

# compound CCCCCCCCC(SC(=O)/C=C/c1ccccc1)c1cc(OC)c2c(c1OC)/C(=N/O)C=C/C2=N\O (configuration not stated) ; its selectivity ratio = > 132

# compound CCCCCCCCCCC(SCCCCCC)c1cc(OC)c2c(c1OC)/C(=N/O)C=C/C2=N\O (configuration not stated) ; its selectivity ratio = > 4.86

# compound CCCCCCCCCCC(SCC)c1cc(OC)c2c(c1OC)/C(=N/O)C=C/C2=N\O (configuration not stated) ; its selectivity ratio = > 56.2
